Target: GP of E. coli (Escherichia coli, UniProt P0AC86, E280D/L281V)
Construct: His tag (pET-15b) (N); made in house; host or cells: E. coli BL21 (DE3) C43 transformed with pET15b-glgP (CECT 7071)
Sequence (P0AC86 other isoform, or with tags, fused parts or gaps E280D/L281V): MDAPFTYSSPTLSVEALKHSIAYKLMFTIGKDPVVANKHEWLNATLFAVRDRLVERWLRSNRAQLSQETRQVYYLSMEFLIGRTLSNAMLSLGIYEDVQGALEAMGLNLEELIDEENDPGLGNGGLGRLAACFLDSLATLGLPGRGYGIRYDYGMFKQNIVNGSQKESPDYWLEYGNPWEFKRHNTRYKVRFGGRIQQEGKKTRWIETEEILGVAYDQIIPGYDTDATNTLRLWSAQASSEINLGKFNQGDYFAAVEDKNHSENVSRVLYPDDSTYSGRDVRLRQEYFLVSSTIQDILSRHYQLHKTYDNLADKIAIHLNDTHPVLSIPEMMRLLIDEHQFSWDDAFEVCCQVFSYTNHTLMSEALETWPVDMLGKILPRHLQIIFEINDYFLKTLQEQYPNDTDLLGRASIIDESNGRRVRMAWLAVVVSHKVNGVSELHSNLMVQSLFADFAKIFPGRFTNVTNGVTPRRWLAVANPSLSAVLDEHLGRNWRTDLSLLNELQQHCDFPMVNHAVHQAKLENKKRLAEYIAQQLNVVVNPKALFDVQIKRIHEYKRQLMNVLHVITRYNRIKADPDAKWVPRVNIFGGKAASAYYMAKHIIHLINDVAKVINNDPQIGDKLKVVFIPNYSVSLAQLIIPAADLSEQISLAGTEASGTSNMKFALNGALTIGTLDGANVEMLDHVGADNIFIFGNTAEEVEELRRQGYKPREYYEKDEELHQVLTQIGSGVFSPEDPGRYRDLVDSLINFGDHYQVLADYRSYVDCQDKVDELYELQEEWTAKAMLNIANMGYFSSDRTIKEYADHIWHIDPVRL
Assay: Substrate specificity of GP of E. coli (products by HPLC with amperometric detection)
Type: biochemical
Conditions: glucan 5 mM glucose, 30 mM Pi, 3 U recombinant GP, 3 hours, 37° C.
Value kind: Products: Maltose

{"columns": ["Compound", "Tgt", "Value kind", "Endpoint result"],
 "data": [
  ["OC[C@H]1O[C@H](O[C@H]2[C@H](O)[C@@H](O)[C@@H](O[C@H]3[C@H](O)[C@@H](O)[C@@H](O[C@H]4[C@H](O)[C@@H](O)C(O)O[C@@H]4CO)O[C@@H]3CO)O[C@@H]2CO)[C@H](O)[C@@H](O)[C@@H]1O (stereo partly shown)", "GP of E. coli (Escherichia coli, UniProt P0AC86, E280D/L281V)", "Products: Maltose", "b.d.l."],
  ["OC[C@H]1O[C@H](O[C@H]2[C@H](O)[C@@H](O)[C@@H](O[C@H]3[C@H](O)[C@@H](O)[C@@H](O[C@H]4[C@H](O)[C@@H](O)[C@@H](O[C@H]5[C@H](O)[C@@H](O)[C@@H](O[C@H]6[C@H](O)[C@@H](O)[C@@H](O[C@H]7[C@H](O)[C@@H](O)C(O)O[C@@H]7CO)O[C@@H]6CO)O[C@@H]5CO)O[C@@H]4CO)O[C@@H]3CO)O[C@@H]2CO)[C@H](O)[C@@H](O)[C@@H]1O (stereo partly shown)", "GP of E. coli (Escherichia coli, UniProt P0AC86, E280D/L281V)", "Products: Maltose", "b.d.l."],
  ["OC[C@H]1O[C@H](O[C@H]2[C@H](O)[C@@H](O)C(O)O[C@@H]2CO)[C@H](O)[C@@H](O)[C@@H]1O (mixture of isomers)", "GP of E. coli (Escherichia coli, UniProt P0AC86, E280D/L281V)", "Products: Maltose", "5 mM"],
  ["OC[C@H]1O[C@H](O[C@H]2[C@H](O)[C@@H](O)[C@@H](O[C@H]3[C@H](O)[C@@H](O)[C@@H](O[C@H]4[C@H](O)[C@@H](O)[C@@H](O[C@H]5[C@H](O)[C@@H](O)[C@@H](O[C@H]6[C@H](O)[C@@H](O)C(O)O[C@@H]6CO)O[C@@H]5CO)O[C@@H]4CO)O[C@@H]3CO)O[C@@H]2CO)[C@H](O)[C@@H](O)[C@@H]1O (stereo partly shown) [Maltohexose]", "GP of E. coli (Escherichia coli, UniProt P0AC86, E280D/L281V)", "Products: Maltose", "b.d.l."]
]}

====

Target: GP of E. coli (Escherichia coli, UniProt P0AC86, E280D/L281V)
Construct: His tag (pET-15b) (N); made in house; host or cells: E. coli BL21 (DE3) C43 transformed with pET15b-glgP (CECT 7071)
Type: biochemical
Conditions: effector 2 mM; GP activity, no effector = 100
Readings of % control for the listed molecules
Form entry: value (%) — number only.

{"columns": ["Molecule", "Unit string", "Endpoint result"],
 "data": [
  ["O=C[C@H](O)[C@@H](O)[C@H](O)[C@H](O)COP(=O)(O)O [Glucose-6-phosphate]", "%", 95],
  ["O=C(COP(=O)(O)O)[C@@H](O)[C@H](O)[C@H](O)COP(=O)(O)O [Fructose-1,6-bisphosphate]", "%", 113],
  ["Nc1ncnc2c1ncn2[C@@H]1O[C@H](COP(=O)(O)OP(=O)(O)OP(=O)(O)O)[C@@H](O)[C@H]1O [ATP]", "%", 60]
]}

Q: // % control lookup, key: O=C(O)[C@H](O)COP(=O)(O)O [3-phosphoglycerate]
Ans: 111
